System: Acinetobacter baumannii
assay.info: Antibacterial activity against Acinetobacter baumannii ARC 3486 after 18 hrs by broth microdilution method
Format: functional
measurement.setup: ARC 3486, 18 h
parameter.measured: MIC

Field MIC (system: Acinetobacter baumannii) for entry NCC[C@H](O)C(=O)N[C@@H]1C[C@H](N)[C@@H](O[C@H]2O[C@H](CN)[C@@H](O)[C@H](O)[C@H]2O)[C@H](O)[C@H]1O[C@H]1O[C@H](CO)[C@@H](O)[C@H](N)[C@H]1O = > 50 µM

Field MIC (system: Acinetobacter baumannii) for entry CCCCCCCCCC(=O)N[C@@H](Cc1c[nH]c2ccccc12)C(=O)N[C@@H](CC(N)=O)C(=O)N[C@@H](CC(=O)O)C(=O)N[C@@H]1C(=O)NCC(=O)N[C@@H](CCCN)C(=O)N[C@@H](CC(=O)O)C(=O)N[C@H](C)C(=O)N[C@@H](CC(=O)O)C(=O)NCC(=O)N[C@H](CO)C(=O)N[C@@H]([C@H](C)CC(=O)O)C(=O)N[C@@H](CC(=O)c2ccccc2N)C(=O)O[C@@H]1C = > 100 µM

Field MIC (system: Acinetobacter baumannii) for entry CCCCCCCCCC(=O)N[C@@H](Cc1c[nH]c2ccccc12)C(=O)N[C@H](CC(N)=O)C(=O)N[C@@H](CC(=O)O)C(=O)N[C@@H]1C(=O)NCC(=O)N[C@@H](CCCNC(=O)CCCC(=O)N(O)CCCCCNC(=O)CCC(=O)N(CCCCNC(=O)c2cccc(O)c2O)CCCNC(=O)c2cccc(O)c2O)C(=O)N[C@@H](CC(=O)O)C(=O)N[C@H](C)C(=O)N[C@@H](CC(=O)O)C(=O)NCC(=O)N[C@H](CO)C(=O)N[C@@H]([C@@H](C)CC(=O)O)C(=O)N[C@@H](CC(=O)c2ccccc2N)C(=O)O[C@@H]1C = 0.4 µM

Field MIC (system: Acinetobacter baumannii) for entry CCCCCCCCCC(=O)N[C@@H](Cc1c[nH]c2ccccc12)C(=O)N[C@@H](CC(N)=O)C(=O)N[C@@H](CC(=O)O)C(=O)N[C@@H]1C(=O)NCC(=O)N[C@@H](CCCNC(=O)CCCC(=O)N(CCCCCNC(=O)CCC(=O)N(CCCCNC(=O)c2cccc(OCc3ccccc3)c2OCc2ccccc2)CCCNC(=O)c2cccc(OCc3ccccc3)c2OCc2ccccc2)OCc2ccccc2)C(=O)N[C@@H](CC(=O)O)C(=O)N[C@H](C)C(=O)N[C@@H](CC(=O)O)C(=O)NCC(=O)N[C@H](CO)C(=O)N[C@@H]([C@@H](C)CC(=O)O)C(=O)N[C@@H](CC(=O)c2ccccc2N)C(=O)O[C@@H]1C = > 50 µM

###

Tested on: Acinetobacter baumannii
assay.info: Antibacterial activity against Acinetobacter baumannii ARC 3484 after 18 hrs by broth microdilution method
Assay type: functional
measurement.setup: ARC 3484, 18 h
Hi there, I'd appreciate the recorded MIC for every entry that follows.

Note to self: MIC recorded for CCCCCCCCCC(=O)N[C@@H](Cc1c[nH]c2ccccc12)C(=O)N[C@@H](CC(N)=O)C(=O)N[C@@H](CC(=O)O)C(=O)N[C@@H]1C(=O)NCC(=O)N[C@@H](CCCN)C(=O)N[C@@H](CC(=O)O)C(=O)N[C@H](C)C(=O)N[C@@H](CC(=O)O)C(=O)NCC(=O)N[C@H](CO)C(=O)N[C@@H]([C@H](C)CC(=O)O)C(=O)N[C@@H](CC(=O)c2ccccc2N)C(=O)O[C@@H]1C was > 100 µM

Note to self: MIC recorded for NCC[C@H](O)C(=O)N[C@@H]1C[C@H](N)[C@@H](O[C@H]2O[C@H](CN)[C@@H](O)[C@H](O)[C@H]2O)[C@H](O)[C@H]1O[C@H]1O[C@H](CO)[C@@H](O)[C@H](N)[C@H]1O was > 27 µM

Note to self: MIC recorded for O=C(O)c1cn(C2CC2)c2cc(N3CCNCC3)c(F)cc2c1=O was > 25 µM

Note to self: MIC recorded for CCCCCCCCCC(=O)N[C@@H](Cc1c[nH]c2ccccc12)C(=O)N[C@H](CC(N)=O)C(=O)N[C@@H](CC(=O)O)C(=O)N[C@@H]1C(=O)NCC(=O)N[C@@H](CCCNC(=O)CCCC(=O)N(O)CCCCCNC(=O)CCC(=O)N(CCCCNC(=O)c2cccc(O)c2O)CCCNC(=O)c2cccc(O)c2O)C(=O)N[C@@H](CC(=O)O)C(=O)N[C@H](C)C(=O)N[C@@H](CC(=O)O)C(=O)NCC(=O)N[C@H](CO)C(=O)N[C@@H]([C@@H](C)CC(=O)O)C(=O)N[C@@H](CC(=O)c2ccccc2N)C(=O)O[C@@H]1C was 0.4 µM

Note to self: MIC recorded for CCCCCCCCCC(=O)N[C@@H](Cc1c[nH]c2ccccc12)C(=O)N[C@@H](CC(N)=O)C(=O)N[C@@H](CC(=O)O)C(=O)N[C@@H]1C(=O)NCC(=O)N[C@@H](CCCNC(=O)CCCC(=O)N(CCCCCNC(=O)CCC(=O)N(CCCCNC(=O)c2cccc(OCc3ccccc3)c2OCc2ccccc2)CCCNC(=O)c2cccc(OCc3ccccc3)c2OCc2ccccc2)OCc2ccccc2)C(=O)N[C@@H](CC(=O)O)C(=O)N[C@H](C)C(=O)N[C@@H](CC(=O)O)C(=O)NCC(=O)N[C@H](CO)C(=O)N[C@@H]([C@@H](C)CC(=O)O)C(=O)N[C@@H](CC(=O)c2ccccc2N)C(=O)O[C@@H]1C was > 50 µM
